All values here come from ChEMBL document CHEMBL3785026.

# Method notes: Terminal half life in patient with severe cirrhosis (5 patients) at 500 mg, iv by Sarcina lutea based bioassay
# Assay type: ADME, organism-based
# Applied conditions: human, in vivo, read-out: beta t1/2 (converted)
Recorded metric: half-life
The number alone won't do; follow it with the unit.

According to the records, this molecule CC[C@H]1OC(=O)[C@H](C)[C@@H](O[C@H]2C[C@@](C)(OC)[C@@H](O)[C@H](C)O2)[C@H](C)[C@@H](O[C@@H]2O[C@H](C)C[C@H](N(C)C)[C@H]2O)[C@](C)(O)C[C@@H](C)C(=O)[C@H](C)[C@@H](O)[C@]1(C)O.O=C(O)[C@H](O)[C@@H](O)[C@H](O[C@@H]1O[C@H](CO)[C@@H](O)[C@@H](O)[C@H]1O)[C@H](O)CO displays half-life of 2.24 h
